Each record here notes measured kon.
- Measurement Target: T1, human ACTH 1-13 (human, ends and bridges not checked)
- T1 construct: also called human alpha-MSH (ACTH 1-13); alpha-MSH
- T1 peptide: SYSMEHFRWGKPV
- Assay Protocol: SPR ProteOn, antibody immobilised; SPR, antibody on the chip, alpha-MSH alone (Table 6)
Ends that are not written are not given here.
Write the answer as a number in M⁻¹ s⁻¹, unit excluded.

Binder	Result Unit	Observed Value
Ab5 (antibody, human IgG1, kappa, N297A, V domains shown, rabbit/human chimeric antibody, made in HEK-293) VH: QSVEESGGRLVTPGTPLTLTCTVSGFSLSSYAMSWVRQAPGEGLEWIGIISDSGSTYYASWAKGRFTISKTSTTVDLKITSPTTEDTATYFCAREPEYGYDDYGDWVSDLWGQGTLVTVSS VL: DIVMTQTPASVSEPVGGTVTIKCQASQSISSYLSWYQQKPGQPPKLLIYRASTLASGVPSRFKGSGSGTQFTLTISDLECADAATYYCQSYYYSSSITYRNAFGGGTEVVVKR	M⁻¹ s⁻¹	260000

Proceed to the following item.
Fill in: kon of Ab6 (antibody, human IgG1, kappa, N297A, V domains shown, rabbit/human chimeric antibody, made in HEK-293) VH: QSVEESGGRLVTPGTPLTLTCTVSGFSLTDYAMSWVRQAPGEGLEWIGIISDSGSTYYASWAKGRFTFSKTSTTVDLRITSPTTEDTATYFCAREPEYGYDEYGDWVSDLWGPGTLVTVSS VL: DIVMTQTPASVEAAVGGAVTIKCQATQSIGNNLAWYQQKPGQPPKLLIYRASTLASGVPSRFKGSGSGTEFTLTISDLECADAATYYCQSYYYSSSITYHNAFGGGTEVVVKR is ___
330000
